Cited source: ChEMBL document CHEMBL5058577

Test system: U2OS
test summary: Multiplex assay against U2OS
Type: toxicity, cell-based
assay conditions: human, 48 h, 1 µM, compound concentration 1 uM, replicate 1
# note: exactly 400 is not below, so it is not satisfied; use satisfied for Total Cell Count strictly under it

[[record]]
molecule = "Cc1c(Cc2ccc3ccccc3n2)c2cc(F)ccc2n1CC(=O)O [TIMAPIPRANT]"
target_or_test_system = "U2OS"
assigned_class = "not satisfied"

[[record]]
molecule = "Cc1nn(C)c2nc(NNC(=O)Nc3cc(Cl)nc(Cl)c3)cc(C(C)C)c12"
target_or_test_system = "U2OS"
assigned_class = "not satisfied"

[[record]]
molecule = "COc1ccc2c(c1OCc1ccccc1)C[C@@H](C(=O)O)N(C(=O)C(c1ccccc1)c1ccccc1)C2 [OLODANRIGAN]"
target_or_test_system = "U2OS"
assigned_class = "not satisfied"

[[record]]
molecule = "CN1CCN2c3ccccc3Cc3ccccc3C2C1.Cl (stereo not given) [MIANSERIN HYDROCHLORIDE]"
target_or_test_system = "U2OS"
assigned_class = "satisfied"

[[record]]
molecule = "CN(C)C(=O)Cn1cc(-c2ccc(-c3nnc4ccccn34)cc2)cn1"
target_or_test_system = "U2OS"
assigned_class = "not satisfied"

[[record]]
molecule = "CSc1nc(NC2CCCC2)c([N+](=O)[O-])c(NC2CCCC2)n1 [GS-39783]"
target_or_test_system = "U2OS"
assigned_class = "satisfied"

[[record]]
molecule = "CN1C[C@H](C(=O)N[C@]2(C)O[C@@]3(O)[C@@H]4CCCN4C(=O)[C@H](Cc4ccccc4)N3C2=O)C[C@@H]2c3cccc4[nH]cc(c34)C[C@H]21.CS(=O)(=O)O [DIHYDROERGOTAMINE MESYLATE]"
target_or_test_system = "U2OS"
assigned_class = "not satisfied"

[[record]]
molecule = "Cc1sc2c(c1C)C(c1ccc(Cl)cc1)=N[C@H](CC(=O)OC(C)(C)C)c1nnc(C)n1-2"
target_or_test_system = "U2OS"
assigned_class = "not satisfied"

[[record]]
molecule = "CCc1nn2c(C)cc(C)nc2c1Cc1ccc(-c2nnc(C3CCNCC3)o2)cc1"
target_or_test_system = "U2OS"
assigned_class = "satisfied"

[[record]]
molecule = "O=C(O)CCC/C=C\\CC1C(O)CC(O)C1/C=C/C(O)COc1cccc(Cl)c1 (stereo not given) [CLOPROSTENOL]"
target_or_test_system = "U2OS"
assigned_class = "satisfied"

[[record]]
molecule = "O=C(Nc1cc(-c2ccccc2)nn1-c1ccccc1F)c1ccc([N+](=O)[O-])cc1"
target_or_test_system = "U2OS"
assigned_class = "not satisfied"

[[record]]
molecule = "CCCCCCNC(=O)Nc1ccc(S(=O)(=O)Nc2ccc(CCNC[C@H](O)COc3ccc(O)cc3)cc2)cc1 [L-755507]"
target_or_test_system = "U2OS"
assigned_class = "not satisfied"

[[record]]
molecule = "O=c1nc2[nH]c3ccccc3nc-2c(=O)[nH]1 [ALLOXAZINE]"
target_or_test_system = "U2OS"
assigned_class = "satisfied"

[[record]]
molecule = "O=C(NCCNCC(O)COc1ccc(O)cc1)N1CCOCC1.O=C(NCCNCC(O)COc1ccc(O)cc1)N1CCOCC1.O=C(O)/C=C/C(=O)O (stereo not given) [XAMOTEROL FUMARATE]"
target_or_test_system = "U2OS"
assigned_class = "not satisfied"

[[record]]
molecule = "CCn1c(-c2nc3cc(C(=O)N4CCCC(N)C4)ccc3n2C)cc2ccccc21.Cl (stereo not given)"
target_or_test_system = "U2OS"
assigned_class = "satisfied"

[[record]]
molecule = "CCC(=O)OCC(=O)[C@@]1(OC(=O)CC)[C@@H](C)C[C@H]2[C@@H]3CCC4=CC(=O)C=C[C@]4(C)[C@@]3(Cl)[C@@H](O)C[C@@]21C [BECLOMETHASONE DIPROPIONATE]"
target_or_test_system = "U2OS"
assigned_class = "satisfied"

[[record]]
molecule = "C[C@@H]1CC(=O)Nc2cccc(-c3ccc4c(c3)c(-c3cnn(C)c3)nn4C)c2N1"
target_or_test_system = "U2OS"
assigned_class = "not satisfied"

[[record]]
molecule = "COC(c1ccccc1)(c1ccccc1)[C@H](Oc1nc(C)cc(C)n1)C(=O)O [AMBRISENTAN]"
target_or_test_system = "U2OS"
assigned_class = "satisfied"

